Every entry's value here was drawn from patent US20230029835A1.

Exercise: state measured log10 of EC50 for each of the binders provided.
assayed.target: T1, Cynomolgus macaques TSLP recombinant protein (Cynomolgus macaques, UniProt Q969D9 29-159 (human entry), limits assumed, biotinylated in the blocking assays (sites not given))
T1 construct: also called cyTSLP; biotinylated Cynomolgus macaques TSLP protein
T1 chain: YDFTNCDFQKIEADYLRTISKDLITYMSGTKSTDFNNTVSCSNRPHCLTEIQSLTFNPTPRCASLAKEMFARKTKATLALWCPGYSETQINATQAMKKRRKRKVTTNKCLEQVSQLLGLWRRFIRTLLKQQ
test: ELISA on coated cynomolgus TSLP;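 further: Read-out was TMB colorimetric signal measured as absorbance at 450 nm after 10 min development at 37 °C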
Parameter value (number): base-10 log of EC50 in nM.

# annotated cases, reported log10 of EC50 shown
[[record]]
binder = "Ab9 (antibody, V domains shown, Humanized; also called h39G5VHv9/h39G5VKv1) VH: EVQLVQSGAEVKKPGESLKISCKASGYTFTDYWMHWVRQMPGKGLEWMGTIDNSDSDTSLNQSFQGHVTLSVDKSSTTAYLQWSSLKASDTAMYYCARSLDGYYDYWGQGTLVTVSS VL: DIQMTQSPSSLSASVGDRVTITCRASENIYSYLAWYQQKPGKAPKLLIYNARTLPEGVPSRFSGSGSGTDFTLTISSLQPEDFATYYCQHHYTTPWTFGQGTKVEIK"
readout_kind = "log10 of EC50"
val = 2.32

[[record]]
binder = "Ab16 (antibody, V domains shown, Humanized; also called h71G4VHv1/h39G5VKv1) VH: QVQLVQSGAEVKKPGSSVKVSCKASGYTFTDYWMHWVRQAPGQGLEWMGTIDNSDSDTTYNPSFQGHVTISADKSISTAYLQWSSLKASDTAMYYCARSVDGYLDYWGQGTLVTVSS VL: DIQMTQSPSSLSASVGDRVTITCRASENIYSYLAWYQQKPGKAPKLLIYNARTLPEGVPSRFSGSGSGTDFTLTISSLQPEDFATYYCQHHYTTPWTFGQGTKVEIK"
readout_kind = "log10 of EC50"
val = 1.10


Parameters: items (list). Returns: log10 of EC50 for each item.
1. Ab10 (antibody, V domains shown, Humanized; also called h39G5VHv10/h39G5VKv1) VH: QVQLVQSGAEVKKPGSSVKVSCKASGYTFTDYWMHWVRQAPGQGLEWMGIIDPSDSDTSLNQKFQGRVTITADTSTSTAYMELSSLRSEDTAVYYCARSLDGYYDYWGQGTLVTVSS VL: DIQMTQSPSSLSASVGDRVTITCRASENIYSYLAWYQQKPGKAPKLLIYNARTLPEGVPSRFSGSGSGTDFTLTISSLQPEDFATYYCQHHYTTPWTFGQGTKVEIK
2. Ab26 (antibody, V domains shown, Humanized; also called h39G5VHv10/h71G4VKv1; h39G5VHv10/h71G4VKv1 hIgG1) VH: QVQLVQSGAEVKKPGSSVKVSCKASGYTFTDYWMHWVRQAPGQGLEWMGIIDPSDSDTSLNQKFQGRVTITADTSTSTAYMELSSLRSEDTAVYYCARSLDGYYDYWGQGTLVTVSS VL: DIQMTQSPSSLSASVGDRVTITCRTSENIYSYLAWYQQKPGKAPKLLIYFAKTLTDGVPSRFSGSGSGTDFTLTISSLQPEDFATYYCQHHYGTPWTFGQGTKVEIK
3. Ab22 (antibody, V domains shown, Humanized; also called h39G5VHv1/h71G4VKv1; h39G5VHv1/h7IG4VKv1 hIgG1) VH: QVQLVQSGAEVKKPGSSVKVSCKASGYSFISYWIHWVRQAPGQGLEWMGIIDPSDSDTSLNQKFQGRVTLTVDKSSTTAYMELSSLRSEDTAVYYCARSLDGYYDYWGQGTLVTVSS VL: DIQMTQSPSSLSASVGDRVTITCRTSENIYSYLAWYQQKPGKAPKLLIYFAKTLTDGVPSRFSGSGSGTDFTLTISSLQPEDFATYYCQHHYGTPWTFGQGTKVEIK
4. Ab5 (antibody, V domains shown, Humanized; also called h39G5VHv5/h39G5VKv1) VH: QVQLVQSGAEVKKPGSSVKVSCKASGYTFTDYWMHWVRQAPGQGLEWMGIIDPSDSDTSLNQKFQGRVTLTVDTSTSTAYMELSSLRSEDTAVYYCARSLDGYYDYWGQGTLVTVSS VL: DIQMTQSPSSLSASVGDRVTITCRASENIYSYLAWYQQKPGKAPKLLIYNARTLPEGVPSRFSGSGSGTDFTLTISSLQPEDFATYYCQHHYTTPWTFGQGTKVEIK

Reply:
[0.35, -0.02, -0.11, 0.45]
